Tested on: A673/TR/shEF
Experiment: cell viability (LOESS-normalised, relative to median of negative controls) (log2 ratio); higher = more viable cells (less compound effect), active = hit call of the paper (over 3 MAD below the median)
Settings: 0.308 µM; library screen: screen3; EWS-FLI1 expression: low (doxycycline-induced shRNA knockdown); treatment time: 72 h
The whole screen tested about 3,200 compounds, of which about 300 (9.4%) showed activity. The sample holds actives, similar compounds and a random draw of the others, so the mix is not that of the screen.
Select the matching outcome among 1 (yes) = active, 0 (no) = inactive

Below are worked cases with known answers.
Nc1ccc(S(=O)(=O)Nc2ncccn2)cc1
0 (no)
C[C@@H](Oc1cc(-c2cnn(C3CCNCC3)c2)cnc1N)c1c(Cl)ccc(F)c1Cl
0 (no)
CN1/C(=C(\O)Nc2ccccn2)C(=O)c2ccccc2S1(=O)=O
0 (no)
NCCCCCC(=O)O
0 (no)
Nc1ccn([C@@H]2CS[C@H](CO)O2)c(=O)n1
0 (no)

Lab log entry: CCCS(=O)(=O)Nc1ccc(F)c(C(=O)c2c[nH]c3ncc(-c4ccc(Cl)cc4)cc23)c1F — outcome as called in the assay?
0 (no)

Cool, now COc1ncc(-c2ccc3nccc(-c4ccnnc4)c3c2)cc1NS(=O)(=O)c1ccc(F)cc1F
1 (yes)

Cool, now CCCCCCCCCC(=O)N[C@@H](Cc1c[nH]c2ccccc12)C(=O)N[C@@H](CC(N)=O)C(=O)N[C@@H](CC(=O)O)C(=O)NC1C(=O)NCC(=O)N[C@@H](CCCN)C(=O)N[C@@H](CC(=O)O)C(=O)N[C@H](C)C(=O)N[C@@H](CC(=O)O)C(=O)NCC(=O)N[C@H](CO)C(=O)N[C@@H](C(C)CC(=O)O)C(=O)N[C@@H](CC(=O)c2ccccc2N)C(=O)OC1C (stereo partly drawn)
0 (no)
